Molecular target: human αvβ5 expressed on BaF3 cells (stably transfected with human αv and β5 subunits) (human, UniProt P06756 31-1048; P18084 24-799)
Sequence (P06756 31-1048 limits assumed, chain 1 of 2): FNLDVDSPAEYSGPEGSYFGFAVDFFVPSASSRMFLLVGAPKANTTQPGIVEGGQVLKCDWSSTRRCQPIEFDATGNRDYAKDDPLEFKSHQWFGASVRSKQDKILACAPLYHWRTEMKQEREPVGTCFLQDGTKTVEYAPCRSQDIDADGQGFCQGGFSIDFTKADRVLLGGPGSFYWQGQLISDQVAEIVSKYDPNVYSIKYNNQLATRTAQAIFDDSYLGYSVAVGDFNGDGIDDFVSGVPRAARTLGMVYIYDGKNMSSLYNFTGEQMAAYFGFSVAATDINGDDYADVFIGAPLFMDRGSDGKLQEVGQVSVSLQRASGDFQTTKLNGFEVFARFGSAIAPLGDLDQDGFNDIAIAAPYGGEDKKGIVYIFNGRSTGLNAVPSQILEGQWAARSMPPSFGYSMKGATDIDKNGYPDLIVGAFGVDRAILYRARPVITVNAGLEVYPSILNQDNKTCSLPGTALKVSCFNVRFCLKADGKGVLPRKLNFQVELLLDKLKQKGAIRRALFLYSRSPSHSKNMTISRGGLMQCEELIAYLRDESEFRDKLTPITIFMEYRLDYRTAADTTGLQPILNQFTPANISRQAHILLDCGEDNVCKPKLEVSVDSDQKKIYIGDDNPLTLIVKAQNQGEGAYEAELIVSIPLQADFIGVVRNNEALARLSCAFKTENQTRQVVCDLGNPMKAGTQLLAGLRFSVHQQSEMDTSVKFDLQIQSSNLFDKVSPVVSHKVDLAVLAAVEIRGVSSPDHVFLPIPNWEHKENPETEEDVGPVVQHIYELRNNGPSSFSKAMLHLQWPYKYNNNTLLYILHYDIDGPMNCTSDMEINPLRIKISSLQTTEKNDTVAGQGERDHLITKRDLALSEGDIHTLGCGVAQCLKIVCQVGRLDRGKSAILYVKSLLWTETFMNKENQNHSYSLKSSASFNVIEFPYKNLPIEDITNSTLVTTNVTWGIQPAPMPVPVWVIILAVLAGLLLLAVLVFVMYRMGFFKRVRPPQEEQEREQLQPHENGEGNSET
Sequence (P18084 24-799 limits assumed, chain 2 of 2): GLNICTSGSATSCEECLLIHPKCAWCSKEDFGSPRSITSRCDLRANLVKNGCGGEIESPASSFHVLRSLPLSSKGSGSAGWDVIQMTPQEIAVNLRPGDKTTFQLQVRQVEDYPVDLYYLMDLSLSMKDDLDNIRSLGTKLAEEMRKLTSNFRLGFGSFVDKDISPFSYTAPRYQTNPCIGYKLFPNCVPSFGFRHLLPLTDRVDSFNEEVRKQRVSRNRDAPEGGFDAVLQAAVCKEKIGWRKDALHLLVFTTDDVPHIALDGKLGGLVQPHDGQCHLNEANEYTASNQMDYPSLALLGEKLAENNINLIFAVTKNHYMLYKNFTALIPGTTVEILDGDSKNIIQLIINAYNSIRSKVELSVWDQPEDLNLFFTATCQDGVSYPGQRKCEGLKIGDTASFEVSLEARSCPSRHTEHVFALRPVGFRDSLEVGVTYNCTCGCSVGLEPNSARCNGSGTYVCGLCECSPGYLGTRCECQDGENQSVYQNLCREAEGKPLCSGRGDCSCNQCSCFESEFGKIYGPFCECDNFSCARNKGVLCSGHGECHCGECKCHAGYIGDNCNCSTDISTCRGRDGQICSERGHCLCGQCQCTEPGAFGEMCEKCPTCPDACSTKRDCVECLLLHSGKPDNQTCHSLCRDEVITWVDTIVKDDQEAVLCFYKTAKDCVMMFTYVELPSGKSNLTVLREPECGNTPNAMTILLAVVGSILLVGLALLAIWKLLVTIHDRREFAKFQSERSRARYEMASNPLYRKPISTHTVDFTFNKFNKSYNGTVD
Assay: cell-based or functional assay
Form field: VN adhesion inhibition, αvβ5-BaF3 (IC50, nM) (one value per entry).
parameter-measured: VN adhesion inhibition, αvβ5-BaF3 (IC50, nM)

binder	reading-unit	measurement
VH3/VL1 Agly-hIgG1(T299A) (antibody, V domains shown, also called H3/L1) VH: EVQVVESGGGLVKPGGSLRLSCKASGYTFTSYWMHWVKQAPGKGLEWVGAIYPGNSDTSYNQKFKGKFTLSAVTSSNTAYLQMNSLKTEDTAVYYCTTTTYGYDWFAYWGQGTLVTVSS VL: DIQMTQSPSSLSASVGDRVTMTCKSSQSVLYSSNQKNYLAWYQQKPGKAPKLLIYWASTRESGVPDRFSGSGSGTDFTLTISSLQPEDFATYYCHQYLSSLTFGQGTKLEIK	nM	360
VH1/VL0 Agly-hIgG1(T299A) (antibody, V domains shown, also called H1/L0) VH: EVQVVESGGGLVKPGGSLRLSCAASGYTFTSYWMHWVRQAPGKGLEWVGAIYPGNSDTSYNQKFKGRFTISADTSKNTLYLQMNSLKTEDTAVYYCTTTTYGYDWFAYWGQGTLVTVSS VL: DIQMTQSPSSVSASVGDRVTITCKSSQSVLYSSNQKNYLAWYQQKPGKAPKLLIYWASTRESGVPSRFSGSGSGTDFTLTISSLQPEDFATYYCHQYLSSLTFGQGTKVEIK	nM	3300
VH0/VL1 Agly-hIgG1(T299A) (antibody, V domains shown, also called H0/L1) VH: EVQLVESGGGLVKPGGSLRLSCAASGYTFTSYWMHWVRQAPGKGLEWVGAIYPGNSDTSYNQKFKGRFTISRDDSKNTLYLQMNSLKTEDTAVYYCTTTTYGYDWFAYWGQGTLVTVSS VL: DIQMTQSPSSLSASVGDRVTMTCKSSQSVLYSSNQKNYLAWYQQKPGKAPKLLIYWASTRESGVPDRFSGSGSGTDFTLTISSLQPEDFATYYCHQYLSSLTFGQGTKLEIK	nM	1620
VH2/VL0 Agly-hIgG1(T299A) (antibody, V domains shown, also called H2/L0) VH: EVQVVQSGGGLVKPGESLRLSCAASGYTFTSYWMHWVKQAPGKGLEWVGAIYPGNSDTSYNQKFKGKFTISADTSSNTAYLQMNSLKTEDTAVYYCTTTTYGYDWFAYWGQGTLVTVSS VL: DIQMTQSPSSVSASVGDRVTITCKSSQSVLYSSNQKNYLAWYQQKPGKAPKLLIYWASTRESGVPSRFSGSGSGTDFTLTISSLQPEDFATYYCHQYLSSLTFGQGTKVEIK	nM	476
VH5/VL1 Agly-hIgG1(T299A) (antibody, V domains shown, also called H5/L1) VH: EVQVQQSGGGLVKPGGSLRLSCKASGYTFTSYWMHWVKQAPGKGLEWVGAIYPGNSDTSYNQKFKGKATLSAVTSPNTAYLQMNSLKTEDTAVYYCTTTTYGYDWFAYWGQGTLVTVSS VL: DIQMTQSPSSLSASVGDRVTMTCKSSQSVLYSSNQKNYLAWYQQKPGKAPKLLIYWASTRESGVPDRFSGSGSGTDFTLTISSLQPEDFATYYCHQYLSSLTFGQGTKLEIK	nM	163

Numbers sourced from patent US20170362324A1.
